# Test system: NCI-H2126
# testMethodNotes: relative viability (nuclei count vs DMSO), 5 days (fraction); higher = more cells survive
# experimentalConditions: first compound 0.01 µM
observable: relative viability
Please reply with the number alone, leaving off any unit.

Known results for molecules:
| molecule | target | relative viability |
| --- | --- | --- |
| O=c1cc(N2CCOCC2)oc2c(-c3cccc4c3sc3ccccc34)cccc12 + Cc1cc(Nc2cc(N3CCN(C)CC3)nc(Sc3ccc(NC(=O)C4CC4)cc3)n2)n[nH]1 [Tozasertib] (partner 0.1 µM) | NCI-H2126 | 0.781 |
| O=c1cc(N2CCOCC2)oc2c(-c3cccc4c3sc3ccccc34)cccc12 + Cc1nc(Nc2ncc(C(=O)Nc3c(C)cccc3Cl)s2)cc(N2CCN(CCO)CC2)n1 [Dasatinib] (partner 0.075 µM) | NCI-H2126 | 0.66 |

Query: Dear colleague, please send me the reported relative viability for O=c1cc(N2CCOCC2)oc2c(-c3cccc4c3sc3ccccc34)cccc12 + CS(=O)(=O)N1CCN(Cc2cc3nc(-c4cccc5[nH]ncc45)nc(N4CCOCC4)c3s2)CC1 [Pictilisib] (partner 1 µM) when you can.
Reply: 0.471

----------
# System: RERF-LC-KJ
# testMethodNotes: relative viability (nuclei count vs DMSO), 5 days (fraction); higher = more cells survive
# experimentalConditions: first compound 0.1 µM
Form field: relative viability (one value per entry).
Write the number on its own, no unit after it.

Past entries and their recorded results:
| molecule | relative viability |
| --- | --- |
| O=c1cc(N2CCOCC2)oc2c(-c3cccc4c3sc3ccccc34)cccc12 + CS(=O)(=O)N1CCN(Cc2cc3nc(-c4cccc5[nH]ncc45)nc(N4CCOCC4)c3s2)CC1 [Pictilisib] (partner 1 µM) | 0.595 |
| CCN(CC)CCCCNc1ncc2cc(-c3cc(OC)cc(OC)c3)c(NC(=O)NC(C)(C)C)nc2n1 + CC1(C)CCC(c2ccc(Cl)cc2)=C(CN2CCN(c3ccc(C(=O)NS(=O)(=O)c4ccc(N[C@H](CCN5CCOCC5)CSc5ccccc5)c(S(=O)(=O)C(F)(F)F)c4)cc3)CC2)C1 [Navitoclax] (partner 0.5 µM) | 0.925 |
| CCN(CC)CCCCNc1ncc2cc(-c3cc(OC)cc(OC)c3)c(NC(=O)NC(C)(C)C)nc2n1 + Nc1nc2[nH]cc(CCc3ccc(C(=O)N[C@@H](CCC(=O)O)C(=O)O)cc3)c2c(=O)[nH]1 [Pemetrexed] (partner 0.2 µM) | 0.499 |
| CCN(CC)CCCCNc1ncc2cc(-c3cc(OC)cc(OC)c3)c(NC(=O)NC(C)(C)C)nc2n1 + NC(=O)Nc1cc(-c2cccc(F)c2)sc1C(=O)N[C@H]1CCCNC1 [AZD7762] (partner 0.2 µM) | 0.983 |
| CCN(CC)CCCCNc1ncc2cc(-c3cc(OC)cc(OC)c3)c(NC(=O)NC(C)(C)C)nc2n1 + COc1cc2c(Oc3ccc(NC(=O)C4(C(=O)Nc5ccc(F)cc5)CC4)cc3F)ccnc2cc1OCCCN1CCOCC1 [Foretinib] (partner 0.25 µM) | 0.871 |

Query: Give the value of relative viability reported for the following: CCN(CC)CCCCNc1ncc2cc(-c3cc(OC)cc(OC)c3)c(NC(=O)NC(C)(C)C)nc2n1 + Cc1nc(NC(=O)N2CCC[C@H]2C(N)=O)sc1-c1ccnc(C(C)(C)C(F)(F)F)c1 [Alpelisib] (partner 2 µM)
Reply: 0.925

Query: Supply measured relative viability of O=c1cc(N2CCOCC2)oc2c(-c3cccc4c3sc3ccccc34)cccc12 + CC(C)C[C@H](NC(=O)[C@H](Cc1ccccc1)NC(=O)c1cnccn1)B(O)O [Bortezomib] (partner 0.002 µM) in your reply.
Reply: 1.13

Query: Fill in reported relative viability for this entry: CCN(CC)CCCCNc1ncc2cc(-c3cc(OC)cc(OC)c3)c(NC(=O)NC(C)(C)C)nc2n1 + Nc1ncn([C@H]2C[C@H](O)[C@@H](CO)O2)c(=O)n1 [Decitabine] (partner 2 µM)
Reply: 0.74

Query: Consider the molecule O=c1cc(N2CCOCC2)oc2c(-c3cccc4c3sc3ccccc34)cccc12 + Cc1cc(Nc2cc(N3CCN(C)CC3)nc(Sc3ccc(NC(=O)C4CC4)cc3)n2)n[nH]1 [Tozasertib] (partner 0.1 µM) . State its measured relative viability.
Reply: 0.496

----------
# Test system: HCC-78
# testMethodNotes: relative viability (nuclei count vs DMSO), 5 days (fraction); higher = more cells survive
# experimentalConditions: first compound 1 µM
Assign labels as follows, please: satisfied for relative viability below 0.5; not satisfied for relative viability equal to or exceeding 0.5.

Query: Regarding CCN(CC)CCCCNc1ncc2cc(-c3cc(OC)cc(OC)c3)c(NC(=O)NC(C)(C)C)nc2n1 + CC1(C)CCC(c2ccc(Cl)cc2)=C(CN2CCN(c3ccc(C(=O)NS(=O)(=O)c4ccc(N[C@H](CCN5CCOCC5)CSc5ccccc5)c(S(=O)(=O)C(F)(F)F)c4)cc3)CC2)C1 [Navitoclax] (partner 0.5 µM) , kindly confirm whether its relative viability is beneath 0.5.
Reply: not satisfied

Query: Regarding CCN(CC)CCCCNc1ncc2cc(-c3cc(OC)cc(OC)c3)c(NC(=O)NC(C)(C)C)nc2n1 + Cc1nc(NC(=O)N2CCC[C@H]2C(N)=O)sc1-c1ccnc(C(C)(C)C(F)(F)F)c1 [Alpelisib] (partner 2 µM) , kindly confirm whether its relative viability is beneath 0.5.
Reply: satisfied

Query: Field: below-cutoff. Rule: recorded relative viability strictly less than 0.5. Subject: CCN(CC)CCCCNc1ncc2cc(-c3cc(OC)cc(OC)c3)c(NC(=O)NC(C)(C)C)nc2n1 + COc1cccc2cc(-c3nc([C@H]4CC[C@H](C(=O)O)CC4)n4ncnc(N)c34)[nH]c12 [OSI-027] (partner 0.5 µM)
Reply: satisfied

Query: Determine if CCN(CC)CCCCNc1ncc2cc(-c3cc(OC)cc(OC)c3)c(NC(=O)NC(C)(C)C)nc2n1 + CC(C)C[C@H](NC(=O)[C@H](Cc1ccccc1)NC(=O)c1cnccn1)B(O)O [Bortezomib] (partner 0.002 µM) shows relative viability strictly lower than 0.5.
Reply: satisfied

----------
# Tested on: NCI-H1915
# testMethodNotes: relative viability (nuclei count vs DMSO), 5 days (fraction); higher = more cells survive
# experimentalConditions: first compound 0.01 µM
observable: relative viability
Give your answer as a number; write no unit.

| compound | target | numericValue |
| --- | --- | --- |
| O=c1cc(N2CCOCC2)oc2c(-c3cccc4c3sc3ccccc34)cccc12 + COc1cc2c(Oc3ccc(NC(=O)C4(C(=O)Nc5ccc(F)cc5)CC4)cc3F)ccnc2cc1OCCCN1CCOCC1 [Foretinib] (partner 0.25 µM) | NCI-H1915 | 1.12 |
| CCN(CC)CCCCNc1ncc2cc(-c3cc(OC)cc(OC)c3)c(NC(=O)NC(C)(C)C)nc2n1 + Cc1nc(Nc2ncc(C(=O)Nc3c(C)cccc3Cl)s2)cc(N2CCN(CCO)CC2)n1 [Dasatinib] (partner 0.075 µM) | NCI-H1915 | 0.303 |
| CCN(CC)CCCCNc1ncc2cc(-c3cc(OC)cc(OC)c3)c(NC(=O)NC(C)(C)C)nc2n1 + CCNC(=O)c1noc(-c2cc(C(C)C)c(O)cc2O)c1-c1ccc(CN2CCOCC2)cc1 [Luminespib] (partner 0.01 µM) | NCI-H1915 | 0.885 |
| O=c1cc(N2CCOCC2)oc2c(-c3cccc4c3sc3ccccc34)cccc12 + Nc1ncn([C@H]2C[C@H](O)[C@@H](CO)O2)c(=O)n1 [Decitabine] (partner 2 µM) | NCI-H1915 | 0.28 |
| CCN(CC)CCCCNc1ncc2cc(-c3cc(OC)cc(OC)c3)c(NC(=O)NC(C)(C)C)nc2n1 + CC(=O)Nc1cccc(-n2c(=O)n(C3CC3)c(=O)c3c(Nc4ccc(I)cc4F)n(C)c(=O)c(C)c32)c1 [Trametinib] (partner 0.02 µM) | NCI-H1915 | 0.303 |
| CCN(CC)CCCCNc1ncc2cc(-c3cc(OC)cc(OC)c3)c(NC(=O)NC(C)(C)C)nc2n1 + COc1cccc2cc(-c3nc([C@H]4CC[C@H](C(=O)O)CC4)n4ncnc(N)c34)[nH]c12 [OSI-027] (partner 0.5 µM) | NCI-H1915 | 0.377 |
| O=c1cc(N2CCOCC2)oc2c(-c3cccc4c3sc3ccccc34)cccc12 + N=C(N)NC(=N)NCCc1ccccc1 [Phenformin] (partner 250 µM) | NCI-H1915 | 0.381 |

Now take the following compound into account.
Query: Please report the measured relative viability for O=c1cc(N2CCOCC2)oc2c(-c3cccc4c3sc3ccccc34)cccc12 + CC(=O)Nc1cccc(-n2c(=O)n(C3CC3)c(=O)c3c(Nc4ccc(I)cc4F)n(C)c(=O)c(C)c32)c1 [Trametinib] (partner 0.02 µM)
Reply: 0.32
